# Assay summary: Identification of proteins required for the processing of the EWS-FLI1 nascent transcript;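 also: robust z of luciferase light less the median z of siRNAs with the same seed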
# Assay context: TC32 Ewing sarcoma NR0B1-luc vs CMV-luc, 48 h; screened at 20 nM (by protocol)
# Procedure: Ewing sarcoma (ES) cells depend on the EWS-FLI1 fusion transcription factor for cell survival. […] Luciferase activity was assessed 48 hours post siRNA-transfection. Twenty microl of serum-free media containing Lipofectamine RNAiMax (0.05 microl) was added to wells containing siRNA (0.8 pmol). […] Luciferase expression was measured using OneGlo (Promega, Madison, WI). […]
The full ranking holds about 59,000 sequences; the median of the read-out is about -0.00055, and the lowest 2% start at about -2. The entries come from a sample that favours the lowest values as a whole.
// assign class 1 if seed-corrected z-score falls strictly below -0.03, else class 0 (ties count as class 0)

1) UGCAUGCUCAUUAAGUUCC against TUBE1 | class 1
2) UGCUAGACAAUUCCACUUC against SLX4 | class 1
3) UACGUUAGGACGGCUCAGG against RLTPR | class 1
4) UUCAUAUACAGCACAAUAC against CD58 | class 0
5) UUAGCAACCACGGACACUG against ACR | class 0
6) UCCCAACCCAGUCAUAACC against BEST3 | class 0
7) UUCCAUAUUUAUUAGAGCC against PURG | class 0
8) UCACAGAGCAGAUGGGUUC against PTPN7 | class 1
9) UUUGGUUGAAGGGACCCUC against OR1J2 | class 0
10) AUUCGGAUUUGGGUCGUGC against PCDHGB2 | class 0
11) UUACGAAUGGGCAAAAUUG against ZCWPW1 | class 1
12) UUUUCGAUUAAACCUUUUC against C17orf58 | class 1
13) AAGGUAAACGAUUAAAUUG against LAMTOR3 | class 0
14) UAUGCUUUCAAAAGAGUCC against ETS1 | class 1
15) UUGUAAGCUGGAUCGAUCC against ACACB | class 0
16) AUUGAUGUCAAUCACAUGC against PCDHGA3 | class 1
17) UUUUAUAGAGGGAUAUUCG against NPC2 | class 0
18) UAUGCGCAGAUGUUACUCG against PAICS | class 0
19) UCCUGGAGCAUAUCCGAGC against TMPRSS5 | class 0
20) AGAGUGUCAAGCAGCAUGG against EEF1A1P33 | class 1
21) UUAAAUACAGCUCCUGUUA against AQP11 | class 0
22) UUCUUUUGACUCUUAGUCC against CLEC4C | class 1
23) AAGGAAAUUAGGAUAAUAG against FAM217B | class 0
24) UAAUUGAGUUUCUAAAGUG against CDKAL1 | class 1
25) UUGUCGUUCAGCAAACUCC against ASCC2 | class 1
26) UCUGUUACUUCUGGUUUGC against BAAT | class 1
27) UAUUGACCAAGAUCACAUG against FASTKD2 | class 0
28) UUCUUACACCUGACGAAGC against WNT5B | class 0
29) UUAGUAUUUGGUAUUCAGA against FCGR1A | class 1
30) UUCAUAACGAGUUGGAGCC against RPL30 | class 1
31) UUCGAUAGUCUGUUUCUGC against SLK | class 1
32) UGUGUUUAACCAGAGAUCC against RXRG | class 0
33) UUCAGCACAGAGAAAUUCG against SHISA2 | class 0
34) UUGUUAACCAAGACAACGC against SNAPIN | class 0
35) UUAGCUUCAACGGUGUUAC against E2F8 | class 1
36) UGCCUGGAGAGAGUGUACG against PGLYRP1 | class 1
37) UCAAUUGAUUCCUCAAUUC against MCM6 | class 0
38) AAUGAGACGACGGAUGAAC against C19orf25 | class 1
39) UAUGGACCCAUCAUACUGG against CADM4 | class 0
40) UGACUGACACUUUCAAAGC against SHC1 | class 1
41) UUAUCACCCAUAGGAGCCU against LOC400965 | class 0
42) UUAAUUACUCUCUUCAAUG against UGT2B7 | class 1
43) AAAACUAUUGGUUUCUUCC against GCOM1 | class 1
44) UUCUCCAUCAAAUUAGCCG against LIN52 | class 0

* * *

# Assay summary: Identification of proteins required for the processing of the EWS-FLI1 nascent transcript;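 also: robust z of luciferase light less the median z of siRNAs with the same seed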
# Assay context: TC32 Ewing sarcoma NR0B1-luc vs CMV-luc, 48 h; screened at 20 nM (by protocol)
Whole data set: some 59,000 sequences, median the read-out near -0.00055, cut for the lowest 2% near -2. Only a selection was taken, and the lowest values are over-represented in it overall.
Assay metric: seed-corrected z-score

1. AUGGAUUCUUCAAUCGUCC against SMARCAD1 | 0.8
2. UGAGUCAAUGAUGCGCUUC against SFN | 2.54
3. UUAGCUGCUGGGAACACUG against IL18BP | -2.28
4. UAAUCUAUCCAGGAAUUCC against TTC5 | 0.1
5. UCUCCUCCUCGAAAAGUGC against SLC12A7 | 0.16
6. UUUAUUUAGACUUAUGAUC against PTH | -2.27
7. UGUAUAACCUGGCUCUCUG against FAM45BP | -0.888
8. UCAGGAUCAAGCAUGUUCC against LOC645177 | -0.115

* * *

# Assay summary: Identification of proteins required for the processing of the EWS-FLI1 nascent transcript;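 also: robust z of luciferase light less the median z of siRNAs with the same seed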
# Assay context: TC32 Ewing sarcoma NR0B1-luc vs CMV-luc, 48 h; screened at 20 nM (by protocol)
Over roughly 59,000 sequences, the read-out has its median near -0.00055; the lowest 2% begin near -2. The entries come from a sample that favours the lowest values as a whole.
# if value of seed-corrected z-score reaches 0.4, tag class 1; if it stays below, tag class 0

1. UAGGUUUUCUUCGUUGUCC against MIR503HG | class 1
2. UCACGGUCAUCAUCUAGGG against FOPNL | class 0
3. AAGGGUAUCUGAGUCCUUG against RC3H2 | class 0
4. UACAGUAUCAGCUUCUACA against LOC643855 | class 1
5. UAGGGUACAUCGUAGGGAG against MYO15A | class 0
6. UCUUGUGCUAAAUCCCUGC against BRINP3 | class 0
7. AUACUGUUCACCGAGAAGG against TSPEAR | class 0
8. AAAGUGCCCAAAACGAUGG against ATP2B3 | class 1
9. AAUGAUCACAUCGAUAGUG against SGMS2 | class 0
10. UUAAUUCUCGGAUGUGCUC against ANXA11 | class 0
11. UUACUGCUGAAUACAGACU against HRASLS | class 0
12. ACAAUAAUUAAGACAUUGC against OR4K1 | class 1
13. AACAUAGCUAAAAUGAUCC against CLMN | class 0
14. UUUGAUGAUCUGUAAGGCC against CNOT10 | class 0
15. CGCGUACUGACGGAAACAC against RPS29P3 | class 1

* * *

# Assay summary: Identification of proteins required for the processing of the EWS-FLI1 nascent transcript;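 also: robust z of luciferase light less the median z of siRNAs with the same seed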
# Assay context: TC32 Ewing sarcoma NR0B1-luc vs CMV-luc (EWS-FLI1 target promoter against control promoter), 48 h; screened at 20 nM (by protocol)
In all, about 59,000 sequences were measured (the read-out: median about -0.00055, lowest 2% from about -2 on). Only a selection was taken, and the lowest values are over-represented in it overall.
// assign true (1) if seed-corrected z-score falls strictly below -0.9, else false (0) (ties count as false (0))

1. UACUAGAGCAGUGUCUGAG against DNPH1 | false (0)
2. AUCGGUAUAGUUGAUGCAC against SCN10A | false (0)
3. UUAGAUUGCACAAUCCUGU against DMRTC1 | false (0)
4. UUCGGUCUGCUAAUGCUGG against CNOT2 | false (0)
5. UUGUUCUAAAGUAUCCUCC against NDC80 | true (1)
6. AAUCUGCUUCUUUAAGUCG against RBBP6 | true (1)
7. UCAUUCAUCAGGUUCAUGC against TPD52L1 | false (0)
8. UUUCGUAUAGAGCUUCUCC against DNAJC5B | false (0)
9. AUGAAGCUCAGUCAGGUCG against TMCC2 | true (1)
10. UAACUUAGAAUUCCAUUUU against DMRTA2 | false (0)
11. UCUUGUCGUAGUUCGUGGG against DUS3L | true (1)
12. UUCAUUAUCAUCUAGGUGG against ACTR5 | false (0)
13. AUAGAUACCUAGGUCAACC against NEU3 | false (0)
14. UAAGUUGACAGGCUGUCCA against NXPH3 | true (1)
15. UACCCAUAUAUUUAAAGCC against PQLC3 | false (0)
16. UUAAUGUAUGGGUUGACUC against PLS1 | false (0)
17. UAGUUGUCGAUGUAAACUC against MUC2 | true (1)
18. UCCAGUUCUCCGGUGAUCU against SYNE3 | false (0)
19. AUGUGGAUCAGAAGUAUCA against OR2T10 | false (0)
20. UGAUGUCUACAAUAUCACC against RPL21P20 | true (1)
21. UUACUAGCUCCGGUGGCAC against KCNK4 | false (0)
22. AUGAGUUUAAAGUACAAAG against TBC1D3G | true (1)
23. UUCAUAACUCUGUUGUGCC against FNBP1L | false (0)
24. UUCUGGAUAAACAUAUUCC against MCU | false (0)
25. AAGGUAAACAUGUUCUCGC against TARSL2 | false (0)
26. UGACAUACUUCGUAAGUCC against ERLEC1 | false (0)
27. AAUGGAACAACAGCGGUCC against ZNF217 | false (0)
28. AUACUUGCAAACAAACUCC against RREB1 | true (1)
29. AUCUCUUCCACUUCCGAGG against SMARCB1 | true (1)
30. AAGUCGAUCCAUAACAAUC against AK9 | false (0)
31. UAAACAGUGAUUGCACCAC against ZNF497 | true (1)
32. AAUGGAAAUAUUCUCGACC against CNRIP1 | false (0)
33. AUAUUUGCAACCUGCAUUC against SPG7 | false (0)
34. UUCAUGACAAAGCUUGACC against PFN1P3 | false (0)
35. AGACGUUCCAUUCAUAUCU against RBMY1F | false (0)
36. AAUUAGAUUACCUAAACAC against CDKL2 | false (0)
37. UUAACUGCAUCCCUAAUCC against AVEN | true (1)
38. UUAGCUGCUAGAAACAAGG against CCNT1 | true (1)
39. UUUAGGUAAAUGAACUCUC against ANGPTL2 | false (0)
40. UGUUGUAGAAGGUAAACCC against CLRN3 | true (1)
41. UUCUGAAACAAGCCCUUGC against CCDC103 | true (1)
